Conditions: in n-propanol, 288.15 K
MEASUREMENT NAME: solubility (mole fraction)

Summary for this molecule, `Cc1ccc(S(=O)[O-])cc1.[Na+]` : solubility (mole fraction) is 0.00321

====

Details: in isopropanol, 313.15 K
MEASUREMENT NAME: solubility (mole fraction)
Answer using only a numeral; do not append any unit.

Summary for this molecule, `Cc1ccc(S(=O)[O-])cc1.[Na+]` : solubility (mole fraction) is 0.00109

====

Conditions: in n-butanol, 293.15 K
MEASUREMENT NAME: solubility (mole fraction)
Answer using only a numeral; do not append any unit.

Summary for this molecule, `Cc1ccc(S(=O)[O-])cc1.[Na+]` : solubility (mole fraction) is 0.00043

These data points were gathered from BigSolDB 2.1.
